- study-target: human full-length VWF (human, UniProt P04275 764-2813)
- measurement-description: SPR Biacore T200, antibody captured on Protein A chip, full-length VWF as analyte, single-cycle kinetics
pKd: −log10 of the molar value.
attribute-measured: pKd

4-H3_H0_L0 (antibody, human IgG1, kappa, V domains shown, humanised, human IgG1 kappa) VH: QVQLVESGGGVVQPGRSLRLSCAASGFTFSSNAMNWVRQAPGKGLEWVAGIYGHDTSYYAAWAKGRFTISRDNSKNTLYLQMNSLRAEDTAVYYCARGFIYFDIWGQGTLVTVSS VL: DIQMTQSPSSLSASVGDRVTITCLASEDIASGISWYQQKPGKAPKLLIYGASNLESGVPSRFSGSGSGTDFTLTISSLQPEDFATYYCLGGYSFSSNGLTFGGGTKVEIKT; > 9.00
1-D5_H0_L0 (antibody, human IgG1, kappa, V domains shown, humanised, human IgG1 kappa) VH: QVQLVESGGGVVQPGRSLRLSCAASGFTFSNYIMGWVRQAPGKGLEWVAIISTGGSTYYASWAKGRFTISRDNSKNTLYLQMNSLRAEDTAVYYCARGGSSAGAGFNIWGQGTLVTVSS VL: DIQMTQSPSSLSASVGDRVTITCQASQSINSGLAWYQQKPGKAPKLLIYKASTLASGVPSRFSGSGSGTDFTLTISSLQPEDFATYYCQSYHYISANGATFGGGTKVEIKT; > 9.00
4-H3_H4_L0 (antibody, human IgG1, kappa, V domains shown, humanised, human IgG1 kappa) VH: QVQLVESGGGVVQPGRSLRLSCAASGIDLTSNAMNWVRQAPGKGLEWVAGIYGHDTSYYAAWAKGRFTISRDNSKNTLYLQMNSLRAEDTATYFCARGFIYFDIWGQGTLVTVSS VL: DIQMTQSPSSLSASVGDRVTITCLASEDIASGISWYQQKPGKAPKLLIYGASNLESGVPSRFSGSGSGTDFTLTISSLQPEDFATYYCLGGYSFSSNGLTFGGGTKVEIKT; > 9.00
